method summary: Cytotoxicity against human Raji cells assessed as cell viability at 1000 molar ratio/TPA
Assay type: cell-based
condition notes: read-out: Activity
endpoint label: viability at 1000 molar ratio/TPA (%)
Numeric only. Scale: %

Use the examples below as a reference point.
1) Cc1cc(=O)c2c(O)cc(O[C@@H]3O[C@H](COC(=O)C4=CC[C@H](C(C)(C)O)CC4)[C@@H](O)[C@H](O)[C@H]3O)cc2o1 ... 70
2) Cc1c(O[C@@H]2O[C@H](CO)[C@@H](O)[C@H](O)[C@H]2O)c(C=O)c(O)c2c1OC(C)(C)C=C2 ... 60
3) CC(C)(O)[C@H]1CC=C(C(=O)OC[C@H]2O[C@@H](Oc3cc(C(=O)O)cc(O)c3O)[C@H](O)[C@@H](O)[C@@H]2O)CC1 ... 70

Annotate the molecule CC1(O)CC(=O)c2c(O)cc(O[C@@H]3O[C@H](COC(=O)C4=CC[C@H](C(C)(C)O)CC4)[C@@H](O)[C@H](O)[C@H]3O)cc2O1 (some centres undefined) with its measured viability at 1000 molar ratio/TPA.
70

These measurements were taken from ChEMBL document CHEMBL1155585.
